Target: T1, B-cat-Halo (beta-catenin HaloTag NanoBRET construct expressed in HEK293 cells) (UniProt P35222 2-781)
T1 sequence (looked up): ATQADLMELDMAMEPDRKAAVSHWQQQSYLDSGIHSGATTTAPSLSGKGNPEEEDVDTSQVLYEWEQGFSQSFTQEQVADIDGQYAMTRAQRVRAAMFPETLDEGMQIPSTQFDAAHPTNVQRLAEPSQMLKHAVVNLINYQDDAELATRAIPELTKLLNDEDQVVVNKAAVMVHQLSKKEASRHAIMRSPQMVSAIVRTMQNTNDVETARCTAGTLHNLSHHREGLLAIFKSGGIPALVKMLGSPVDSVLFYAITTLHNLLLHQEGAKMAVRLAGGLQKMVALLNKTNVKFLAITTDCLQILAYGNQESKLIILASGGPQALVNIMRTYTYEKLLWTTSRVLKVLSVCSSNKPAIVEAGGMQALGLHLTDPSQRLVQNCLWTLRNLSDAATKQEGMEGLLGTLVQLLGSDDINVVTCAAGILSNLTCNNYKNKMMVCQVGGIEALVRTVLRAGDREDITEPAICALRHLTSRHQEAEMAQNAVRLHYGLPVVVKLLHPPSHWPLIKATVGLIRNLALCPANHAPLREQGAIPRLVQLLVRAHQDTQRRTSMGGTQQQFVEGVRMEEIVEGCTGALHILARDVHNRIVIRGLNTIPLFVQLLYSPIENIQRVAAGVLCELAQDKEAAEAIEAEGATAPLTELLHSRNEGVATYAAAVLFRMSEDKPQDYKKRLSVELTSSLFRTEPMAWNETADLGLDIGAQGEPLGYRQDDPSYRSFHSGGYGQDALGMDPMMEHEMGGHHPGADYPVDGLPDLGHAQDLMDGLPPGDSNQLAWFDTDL
Test: cell-based or functional assay
Starred links: 1 amine or outer side, 2 acyl side, 3 side chain; linkers in the order of their positions; H or OH if unused. Positions of bridges follow the written chain, without caps; N, C: chain ends. Non-standard residues stand in square brackets, D forms with d. Primed or numbered codes have the meaning given here. *: point of attachment. PyrS2″ = (S)-3-amino-1-((pent-4-en-1-yloxy)carbonyl)pyrrolidine-3-carboxylic acid (stapling residue), C=CCCCOC(=O)N1CC[C@@](N[*:1])(C(=O)[*:2])C1; B5(4) = 2,2-bis(4-pentenyl)glycine = 2-amino-2-(pent-4-en-1-yl)hept-6-enoic acid (stitching residue), C=CCCCC(CCCC=C)(N[*:1])C(=O)[*:2]; B5(3) = 2,2-bis(4-pentenyl)glycine (stitching residue), C=CCCCC(CCCC=C)(N[*:1])C(=O)[*:2]; Phe(2-Cl) = N[C@@H](Cc1ccccc1Cl)C(=O)O; Bta = N[C@@H](Cc1csc2ccccc12)C(=O)O; αAllylPro = C=CC[C@@]1(C(=O)O)CCCN1; tBuAla = CC(C)(C)C[C@H](N)C(=O)O; S8 = C=CCCCCCC[C@](C)(N)C(=O)O; Leu(ol) = CC(C)C[C@H](N)CO; Alaol = C[C@@H](CO)N*

binder	NanoBRET Abs IC50
Ac-[αAllylPro]D[tBuAla][B5(3)]DDAAFN[PyrS2″][Phe(2-Cl)][Bta]-Alaol (staple 1-4, 4-11) [I-1081]	16.7 µM
Ac-[αAllylPro]D[tBuAla][B5(3)]DDAAFT[S8][Phe(2-Cl)][Bta]Q-NH2 (staple 1-4, 4-11; also: earlier eluting staple isomer) [I-1086]	10.1 µM
Ac-[αAllylPro]D[tBuAla][B5(3)]DDAAFT[S8][Phe(2-Cl)][Bta]Q-NH2 (staple 1-4, 4-11; also: later eluting staple isomer) [I-1087]	9.3 µM
Ac-[αAllylPro]D[tBuAla][B5(3)]DDAAFT[S8][Phe(2-Cl)][Bta][dT]-NH2 (staple 1-4, 4-11) [I-1092]	7.7 µM
Ac-[αAllylPro]D[tBuAla][B5(4)]DDAAFN[PyrS2″][Phe(2-Cl)][Bta][Leu(ol)] (staple 1-4, 4-11) [I-1080]	> 20 µM
